# apparent Kd (screen) values compiled below
ASSAYED_SYSTEM: T1, TNFR1 (Homo sapiens, UniProt P19438)
T1 chain: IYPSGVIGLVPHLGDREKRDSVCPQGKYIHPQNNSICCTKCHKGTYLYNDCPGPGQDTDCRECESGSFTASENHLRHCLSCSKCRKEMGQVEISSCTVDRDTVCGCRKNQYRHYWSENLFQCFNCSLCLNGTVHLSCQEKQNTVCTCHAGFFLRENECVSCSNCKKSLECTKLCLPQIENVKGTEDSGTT
EXPERIMENTAL_PROTOCOL: yeast display SC50
Give just the number in nM; leave the unit off.

{"BINDER": "A106C (designed binder) SMEEEVEKAAKEYEKKKKEAIEKHLEKLKAKDKEAAERFLKELEEAAKEYAKDEAKTMSEEEAKRRAKKYKEKVLLSELSEEEQKEIKEAEEKLVRTILKYVEEACK", "MEASURED_QUANTITY": "apparent Kd (screen)", "UNITS_LABEL": "nM", "VALUE_REPORTED": 3}
{"BINDER": "V102L (designed binder) SMEEEVEKAAKEYEKKKKEAIEKHLEKLKAKDKEAAERFLKELEEAAKEYAKDEAKTMSEEEAKRRAKKYKEKVLLSELSEEEQKEIKEAEEKLVRTILKYLEEAAK", "MEASURED_QUANTITY": "apparent Kd (screen)", "UNITS_LABEL": "nM", "VALUE_REPORTED": 3}
{"BINDER": "E78A (designed binder) SMEEEVEKAAKEYEKKKKEAIEKHLEKLKAKDKEAAERFLKELEEAAKEYAKDEAKTMSEEEAKRRAKKYKEKVLLSALSEEEQKEIKEAEEKLVRTILKYVEEAAK", "MEASURED_QUANTITY": "apparent Kd (screen)", "UNITS_LABEL": "nM", "VALUE_REPORTED": 2.48}

# context switch: different binder, same apparent Kd (screen)
Req: What value of measured apparent Kd (screen) is listed for K29C (designed binder) SMEEEVEKAAKEYEKKKKEAIEKHLEKLCAKDKEAAERFLKELEEAAKEYAKDEAKTMSEEEAKRRAKKYKEKVLLSELSEEEQKEIKEAEEKLVRTILKYVEEAAK ?
Resp: 1.4
